Ref: patent US20180265572A1

# maps each entry to its IC50, inhibition of VEGF-A dependent proliferation of Ba/F3 cells
target: VEGFR2 fusion protein on Ba/F3 cells (extracellular domain of hVEGFR2 and intracellular domain of hEpoR) (human, UniProt P35968 20-764; P19235 274-508, limits assumed); experiment: cell-based or functional assay
readout_kind: IC50, inhibition of VEGF-A dependent proliferation of Ba/F3 cells

binder="V2B-GS10 (SEQ ID NO: 22)-385A08, his-tagged (designed binder, also called V2B-GS10-385A08; V2B-GS10-385A08 (Ser tail)) MGVSDVPRDLEVVAATPTSLLISWRHPHFPTRYYRITYGETGGNSPVQEFTVPLQPPTATISGLKPGVDYTITVYAVTDGRNGRLLSIPISINYRTEIDKGSGSGSGSGSGSGSGSGSGSVSDVPRDLEVVAATPTSLLISWSARLKVARYYRITYGETGGNSPVQEFTVPKNVYTATISGLKPGVDYTITVYAVTRFRDYQPISINYRTEIDKPSQHHHHHH" result="1.9 nM"
binder="385A08-GS10 (SEQ ID NO: 22)-V2B, his-tagged (designed binder, also called 385A08-GS10-V2B; 385A08-GS10-V2B (Ser tail)) MGVSDVPRDLEVVAATPTSLLISWSARLKVARYYRITYGETGGNSPVQEFTVPKNVYTATISGLKPGVDYTITVYAVTRFRDYQPISINYRTEIDKGSGSGSGSGSGSGSGSGSGSVSDVPRDLEVVAATPTSLLISWRHPHFPTRYYRITYGETGGNSPVQEFTVPLQPPTATISGLKPGVDYTITVYAVTDGRNGRLLSIPISINYRTEIDKPSQHHHHHH" result="1.2 nM"
binder="V2B-GS5-385A08 (designed binder, also called V2B-GS5-385A08 (Ser tail)) single chain: MGVSDVPRDLEVVAATPTSLLISWRHPHFPTRYYRITYGETGGNSPVQEFTVPLQPPTATISGLKPGVDYTITVYAVTDGRNGRLLSIPISINYRTEIDKGSGSGSGSGSVSDVPRDLEVVAATPTSLLISWSARLKVARYYRITYGETGGNSPVQEFTVPKNVYTATISGLKPGVDYTITVYAVTRFRDYQPISINYRTEIDKPSQHHHHHH" result="2 nM"
